System: BDF1 mice, M5076 sarcoma ip, median survival T/C
Experiment: NCI In Vivo Anticancer Drug Screen. Data for tumor model Sarcoma M5076 (intraperitoneal) in B6D2F1 (BDF1) mice
Conditions: endpoint: median survival time; dose: 100.0 mg/kg/injection; schedule: Q04DX004 (ip); vehicle: saline
Description: The antitumor activity of compounds was measured in mice bearing transplantable tumors. Survival or tumor size were measured and the results are expressed as the measurement made in the treated group (T) divided by the measurement made in the vehicle treated control group (C). The tumor model used in this assay is Sarcoma M5076 (intraperitoneal) in B6D2F1 (BDF1) mice
Toxic doses and inconclusive results are not listed. Rule for the calls: active = survival T/C of 150% or more; inactive = T/C below 125% in these data.
Outcomes you can answer with include only these: Y (active), N (inactive)

Some entries whose results are on file:
C1CCC(NC2CCCCC2)CC1	N
O=c1[nH]cc(F)c(=O)[nH]1	Y
CNc1nc(N(C)C)nc(N(C)C)n1	N
CC(=O)/C(=C\c1ccc(Cl)c(Cl)c1)C(=O)CCN(C)C	N

Per the assay record, what outcome was assigned to COC1N(C2CC(O)C(CO)O2)C(=O)NC(=O)C1(F)Br (stereo not given) ?
N
